Provide the reported pIC50 of each item.
biological target: CK1δ (Homo sapiens, UniProt P48730); experiment: In-house kinase inhibition assay, CK1δ; assay type: biochemical; settings: read-out: CK1δ IC50, read-out: CK1σ IC50
Sequence (P48730 whole entry): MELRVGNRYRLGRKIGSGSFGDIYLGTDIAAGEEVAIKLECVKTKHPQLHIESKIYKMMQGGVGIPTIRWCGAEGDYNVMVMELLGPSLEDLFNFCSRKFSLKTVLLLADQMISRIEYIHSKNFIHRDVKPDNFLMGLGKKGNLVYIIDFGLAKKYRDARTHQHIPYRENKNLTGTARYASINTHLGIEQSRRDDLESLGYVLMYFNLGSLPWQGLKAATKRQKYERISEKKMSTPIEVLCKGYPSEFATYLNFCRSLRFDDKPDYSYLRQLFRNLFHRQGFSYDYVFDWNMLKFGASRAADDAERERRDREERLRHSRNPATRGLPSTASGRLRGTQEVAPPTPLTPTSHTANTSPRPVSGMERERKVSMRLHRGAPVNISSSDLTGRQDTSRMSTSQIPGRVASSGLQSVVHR
One number for each entry, as −log10 of the molar value.

{"columns": ["CHEMICAL_STRING", "TEST_RESULT"],
 "data": [
  ["Cn1cc(-n2cnc3c(NCc4nc5cc(Cl)c(Cl)cc5[nH]4)nc(N4CCOCC4)nc32)cn1", 5.53],
  ["Fc1ccc2[nH]c(CNc3nc(N4CCOCC4)nc4c3ncn4-c3cncs3)nc2c1F", 6.38],
  ["Cn1cc(-n2cnc3c(NCc4nc5c(F)c(F)ccc5[nH]4)nc(N4CCOCC4)nc32)cn1", 5.07]
]}

Fill in pIC50 for each of the 2 compounds listed.
1. Cc1cc(-n2cnc3c(NCc4nc5c(F)c(F)ccc5[nH]4)nc(N4CCOCC4)nc32)no1
2. Fc1ccc2[nH]c(CNc3nc(N4CCOCC4)nc4c3ncn4-c3nccs3)nc2c1F

1. 5.32
2. 6.40
